# system name: human D2R/β-arrestin (Homo sapiens (Human), UniProt P14416)
# Sequence (P14416 whole entry): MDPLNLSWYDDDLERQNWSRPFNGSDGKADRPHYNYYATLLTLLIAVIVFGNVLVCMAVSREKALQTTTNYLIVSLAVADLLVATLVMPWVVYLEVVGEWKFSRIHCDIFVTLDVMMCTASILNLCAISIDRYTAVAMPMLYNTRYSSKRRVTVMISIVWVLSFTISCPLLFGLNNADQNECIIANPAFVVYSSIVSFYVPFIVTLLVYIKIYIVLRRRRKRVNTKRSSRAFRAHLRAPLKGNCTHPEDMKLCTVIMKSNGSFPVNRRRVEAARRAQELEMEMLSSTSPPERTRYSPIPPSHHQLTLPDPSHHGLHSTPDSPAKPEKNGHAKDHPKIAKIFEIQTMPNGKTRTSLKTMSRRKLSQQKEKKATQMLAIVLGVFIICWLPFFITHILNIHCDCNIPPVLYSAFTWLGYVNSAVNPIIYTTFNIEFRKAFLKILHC
# method notes: β-arrestin agonist assay (PathHunter)
# Assay type: cell-based
# conditions used: CHO-K1 cells expressing human D2R/β-arrestin; agonist mode
pEC50: −log10 of the molar value.
Would you kindly list pEC50 for each of these compounds?

Req: For C[C@@]1(O)C[C@H]2CC[C@@H](C1)N2CCOc1ccccc1C(F)(F)F , what is its reported pEC50?
Resp: < 4.52

Req: For Clc1ccc(N2CCCC23CCN(CC2COc4ccccc4O2)CC3)cc1 (stereo not shown) , what is its reported pEC50?
Resp: < 4.52

Req: For CC1(Oc2ccc(Cl)cc2)CCN(CCOc2ccc3ncsc3c2)C1 (stereo not shown) [Compound 18b] , what is its reported pEC50?
Resp: < 4.52

Req: For CC1(Oc2ccc(Cl)cc2)CCN(CCOc2cccc(-c3ccccc3)c2)C1 (stereo not shown) , what is its reported pEC50?
Resp: < 4.52

Req: For CC1(Oc2ccc(Cl)cc2)CCN(CCOc2ccc3ncoc3c2)CC1 , what is its reported pEC50?
Resp: 6.00 to 7.00

Req: For CC1(Oc2cccc(C(F)(F)F)c2)CCN(CCOc2cc(F)ccc2F)C1 (stereo not shown) , what is its reported pEC50?
Resp: < 4.52

Req: For CC1(NC(=O)C2CC2)CCN(C[C@H]2COc3ccccc3O2)CC1 , what is its reported pEC50?
Resp: < 4.52

Req: For CC1(C(O)c2ccccc2)CCN(CCOc2ccccc2C(F)(F)F)CC1 (stereo not shown) , what is its reported pEC50?
Resp: 4.52 to 5.00

Req: For CC1(Oc2ccc(Cl)cc2)CCN(CCCCOc2ccc3ncsc3c2)C1 (stereo not shown) , what is its reported pEC50?
Resp: < 4.52

Req: For FC(F)(F)c1ccccc1OCCN1CCC2(CC1)CC2c1ccccc1 (stereo not shown) [Example 102a] , what is its reported pEC50?
Resp: < 4.52

Req: For CC1(Oc2ccc(Cl)cc2)CCN(CCn2ccccc2=O)C1 (stereo not shown) , what is its reported pEC50?
Resp: < 4.52

Req: For CC1(Oc2ccc(Cl)cc2)CCN(CCOc2cccc(F)c2C(F)(F)F)CC1 , what is its reported pEC50?
Resp: 6.00 to 7.00

Req: For CC1(C(=O)N2CCCC2)CCN(C[C@H]2COc3ccccc3O2)CC1 , what is its reported pEC50?
Resp: > 7.00

Req: For CC1(O)CCN(CCOc2ccc(C(F)(F)F)cc2)CC1 , what is its reported pEC50?
Resp: < 4.52

Req: For CC1(Oc2ccccc2)CCN(CCOc2ccccc2F)CC1 , what is its reported pEC50?
Resp: > 7.00

Req: For CC1(Oc2cnccn2)CCN(CCOc2ccccc2)C1 (stereo not shown) , what is its reported pEC50?
Resp: 6.00 to 7.00

Req: For COc1ccccc1OCCN1CCC(C)(Oc2ccc(Cl)cc2)C1 (stereo not shown) , what is its reported pEC50?
Resp: < 4.52

Req: For CC1(Oc2ccc(Cl)cc2)CCN(CCOc2cccnc2)C1 (stereo not shown) , what is its reported pEC50?
Resp: > 7.00

Req: For Clc1ccc2c(c1)C[C@@H]1CN(CCOc3ccccc3)C[C@H]1O2 , what is its reported pEC50?
Resp: < 4.52

Req: For CC1(Oc2ccc(Cl)cc2)CCN(CCOc2ccc(F)cc2F)C1 (stereo not shown) , what is its reported pEC50?
Resp: < 4.52

Req: For CNC(=O)C1(C)CCN(CC2COc3ccccc3O2)CC1 (single isomer, unassigned) [Compound 202b] , what is its reported pEC50?
Resp: < 4.52

Req: For CC1(Oc2ccc(Cl)cc2)CCN(CCNc2ccccc2C(F)(F)F)CC1 , what is its reported pEC50?
Resp: < 4.52

Req: For CC1(Oc2ccc(Cl)cc2)CCN(CCOc2cccc3ccccc23)C1 (stereo not shown) , what is its reported pEC50?
Resp: < 4.52

Req: For CC1(Oc2ccc(Cl)cc2)CCN(CCCCOc2ccccc2F)C1 (stereo not shown) , what is its reported pEC50?
Resp: < 4.52

Req: For CC1(OCc2ccccc2)CCN(CCOc2ccccc2C(F)(F)F)CC1 , what is its reported pEC50?
Resp: < 4.52

Req: For COc1cccc(OCCN2CCC(C)(Oc3ccc(Cl)cc3)C2)c1 (stereo not shown) , what is its reported pEC50?
Resp: 5.00 to 6.00

Req: For C#CC1(Oc2ccc(Cl)cc2)CCN(CCOc2ccccc2C(F)(F)F)CC1 , what is its reported pEC50?
Resp: 5.00 to 6.00

Req: For CC1(Oc2ccc(Cl)cc2)CCN(CCOc2ccc(C(F)(F)F)c(O)c2)CC1 , what is its reported pEC50?
Resp: < 4.52

Req: For CC1(Oc2ccc(Cl)cc2)CCN(CCOc2ccc3ncoc3c2)C1 (stereo not shown) , what is its reported pEC50?
Resp: < 4.52

Req: For CC1(Oc2ccc(Cl)cc2)CCN(CCOc2ccc(C(F)(F)F)cc2)C1 (stereo not shown) , what is its reported pEC50?
Resp: < 4.52

Req: For CC1(Oc2ccc(Cl)cc2)CCN(CCOc2ccc(C(F)(F)F)cn2)CC1 , what is its reported pEC50?
Resp: < 4.52

Req: For CN(C)c1ccccc1OCCN1CCC(C)(Oc2ccccc2)CC1 , what is its reported pEC50?
Resp: < 4.52

Req: For OC1(Cc2ccccc2)CCN(CCOc2ccccc2C(F)(F)F)CC1 , what is its reported pEC50?
Resp: < 4.52

Req: For CC1(C(=O)NC2CC2)CCN(CC2COc3ccccc3O2)CC1 (stereo not shown) [Compound 203] , what is its reported pEC50?
Resp: < 4.52

Req: For CC1(Oc2ccc(Cl)cc2)CCCN(C(C)(C)COc2ccccc2)C1 (stereo not shown) , what is its reported pEC50?
Resp: < 4.52

Req: For CC1(Cc2ccc(Cl)cc2)CCN(CCOc2ccccc2C(F)(F)F)CC1 , what is its reported pEC50?
Resp: 5.00 to 6.00

Req: For CC(CO)N1CCC(C)(Oc2ccccc2)CC1 (stereo not shown) , what is its reported pEC50?
Resp: < 4.52

// provenance: patent US11498896B2
